Assay: TOR pathway RPL19A-GFP modulators, concentration series – cell-based, S. cerevisiae, flow cytometry, MLPCN hits, dose response (AID 2740);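 further: background is signal of the same compound in parental non-GFP s288c yeast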
Settings: S. cerevisiae RPL19A-GFP strain, flow cytometry fluorescence, 3 h; at 33 µM (top of the series)
reported metric: GFP fluorescence, lower = active (kMESF (background-subtracted))
Write no unit; give the number alone.

Recorded GFP fluorescence, lower = active (kMESF (background-subtracted)) of "COc1ccccc1[C@@]1(C)ON(c2ccccc2C(F)(F)F)C1=O" , please.
22.7

Recorded GFP fluorescence, lower = active (kMESF (background-subtracted)) of "Nc1ccccc1C#CC(=O)c1ccccc1" , please.
21

Recorded GFP fluorescence, lower = active (kMESF (background-subtracted)) of "O=C1ON=C(c2ccccc2)/C1=C/c1ccc(-c2ccccc2[N+](=O)[O-])o1" , please.
25.3

Recorded GFP fluorescence, lower = active (kMESF (background-subtracted)) of "Cc1ccccc1[C@]1(C)ON(c2ccccc2C(F)(F)F)C1=O" , please.
42.8

Recorded GFP fluorescence, lower = active (kMESF (background-subtracted)) of "Cc1cc(C2CCCCC2)n(O)c(=O)c1" , please.
42.8

Recorded GFP fluorescence, lower = active (kMESF (background-subtracted)) of "COc1ccc([N+](=O)[O-])c(S(=O)(=O)c2ccccc2)n1" , please.
39.1

Recorded GFP fluorescence, lower = active (kMESF (background-subtracted)) of CC(=O)Oc1ccc(N2C(=O)C3C4C=CC(CO)(O4)C3C2=O)cc1 (stereo unspecified) , please.
38.8

Recorded GFP fluorescence, lower = active (kMESF (background-subtracted)) of "CCc1cc(C(=O)Nc2nc(-c3ccccn3)cs2)sc1C" , please.
23.7

Recorded GFP fluorescence, lower = active (kMESF (background-subtracted)) of "O=C(Oc1ccnc2cc(Cl)ccc12)N1CCCCCC1" , please.
25.6

Recorded GFP fluorescence, lower = active (kMESF (background-subtracted)) of "O=C(Oc1oc(-c2ccco2)nc1C=Nc1ccccc1)c1ccoc1" , please.
46.5

Recorded GFP fluorescence, lower = active (kMESF (background-subtracted)) of "CCCN1CCc2c(sc(NC(=S)NC(=O)c3ccccc3)c2C#N)C1" , please.
47.6

====

Assay: TOR pathway RPL19A-GFP modulators, concentration series – cell-based, S. cerevisiae, flow cytometry, MLPCN hits, dose response (AID 2740);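 further: background is signal of the same compound in parental non-GFP s288c yeast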
Details: S. cerevisiae RPL19A-GFP strain, flow cytometry fluorescence, 3 h; at 33 µM (top of the series)
Labelling field: enter true (1) if recorded GFP fluorescence, lower = active (kMESF (background-subtracted)) is less than 40. Enter false (0) if it equals or exceeds that cut-off.

Completed entries (count: 6):
# compound, class assignment
records = [
    ("O=C(OCC(=O)N1CCN(C(=O)c2ccco2)CC1)c1cc(-c2ccc(F)cc2)nc2ccccc12", "true (1)"),
    ("CCOC(=O)CSC1=NC(=O)/C(=C\\c2ccc(Cl)cc2)S1", "true (1)"),
    ("Cc1cccc(N2C(=O)C(Cl)=C(Nc3c(C)n(C)n(-c4ccccc4)c3=O)C2=O)c1C", "false (0)"),
    ("CCSc1nnc(NC(=O)c2ccccn2)s1", "false (0)"),
    ("Oc1ccc2ccccc2c1N=Nc1nccs1", "false (0)"),
    ("O=S(=O)(CCN(CCS(=O)(=O)C(F)(F)F)CC1CCCO1)C(F)(F)F (stereo unspecified)", "true (1)"),
]

Quick check: GFP fluorescence, lower = active (kMESF (background-subtracted)) of "CCCCCCCCC/C(=N\O)c1ccccn1" under 40?
true (1)

Quick check: GFP fluorescence, lower = active (kMESF (background-subtracted)) of "CCCOc1ccc(C(=O)NNC(=S)NC(=O)CC)cc1" under 40?
false (0)

Quick check: GFP fluorescence, lower = active (kMESF (background-subtracted)) of "COc1cc(N2C(=O)C=CC2=O)c(OC)cc1Cl" under 40?
true (1)

Quick check: GFP fluorescence, lower = active (kMESF (background-subtracted)) of "Cc1ccc(S(=O)(=O)Cc2cc(F)c([N+](=O)[O-])cc2[N+](=O)[O-])cc1" under 40?
true (1)

Quick check: GFP fluorescence, lower = active (kMESF (background-subtracted)) of "Cc1[nH]c(-c2ccccn2)nc(=S)c1Cl" under 40?
true (1)

====

Test: TOR pathway RPL19A-GFP modulators, concentration series – cell-based, S. cerevisiae, flow cytometry, MLPCN hits, dose response (AID 2740);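 further: background is signal of the same compound in parental non-GFP s288c yeast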
Conditions: S. cerevisiae RPL19A-GFP strain, flow cytometry fluorescence, 3 h; at 33 µM (top of the series)
# if value of GFP fluorescence, lower = active (kMESF (background-subtracted)) reaches 30, tag rule met; if it stays below, tag rule not met

Completed entries (count: 2):
# molecule, class assignment
records = [
    ("Oc1c(CN2CCN(c3ccc(F)cc3)CC2)cc(Cl)c2cccnc12", "rule met"),
    ("Oc1c(C(Nc2nc3ccccc3s2)c2ccco2)ccc2cccnc12 (stereo unspecified)", "rule met"),
]

Please indicate if the recorded GFP fluorescence, lower = active (kMESF (background-subtracted)) for "O=S(=O)(/N=C(/Sc1ccccc1)c1ccccc1)c1ccccc1" meets or exceeds 30.
rule met

====

Assay: TOR pathway RPL19A-GFP modulators, concentration series – cell-based, S. cerevisiae, flow cytometry, MLPCN hits, dose response (AID 2740);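 further: background is signal of the same compound in parental non-GFP s288c yeast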
Details: S. cerevisiae RPL19A-GFP strain, flow cytometry fluorescence, 3 h; at 33 µM (top of the series)
Catalogue of GFP fluorescence, lower = active (kMESF (background-subtracted)) readings, one per entry.
Write no unit; give the number alone.

Previously resolved entries follow.
# molecular string, reported measurement
data = [
    ("CCCc1nnc(NC(=O)c2c(O)c3cccc4c3n(c2=O)CCC4)s1", 14.6),
    ("Cc1cc(=O)n2c3c(sc2n1)C(=O)N(Cc1ccccc1)C3=O", 42.5),
    ("Nc1c(C(=O)c2cccs2)sc2nsc(SCCN3CCCCC3)c12", 38.1),
    ("COc1ccc(-c2cc3nc4n(c(=O)c3s2)CCC4)cc1", 21.6),
    ("CC(=O)Oc1cccc(N2C(=O)c3cccc4c([N+](=O)[O-])ccc(c34)C2=O)c1", 39.5),
]

Recorded GFP fluorescence, lower = active (kMESF (background-subtracted)) of "Cc1ccc(/C=C2\SC(=S)N(Cc3ccccc3)C2=O)o1" , please.
39.4

Recorded GFP fluorescence, lower = active (kMESF (background-subtracted)) of "O=c1c2cnn(-c3ccccc3)c2ncn1Cc1ccco1" , please.
35.6

Recorded GFP fluorescence, lower = active (kMESF (background-subtracted)) of "O=C(c1ccc([N+](=O)[O-])o1)N1CCN(c2nc3c(F)cc(F)cc3s2)CC1" , please.
31.7

====

Test: TOR pathway RPL19A-GFP modulators, concentration series – cell-based, S. cerevisiae, flow cytometry, MLPCN hits, dose response (AID 2740);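 further: background is signal of the same compound in parental non-GFP s288c yeast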
Details: S. cerevisiae RPL19A-GFP strain, flow cytometry fluorescence, 3 h; at 33 µM (top of the series)
Labelling field: enter Fulfilled if recorded GFP fluorescence, lower = active (kMESF (background-subtracted)) is less than 40. Enter Not fulfilled if it equals or exceeds that cut-off.

Completed entries (count: 5):
# compound, class assignment
rows = [
    ("Cc1ccc(S(=O)(=O)c2ncccc2[N+](=O)[O-])cc1", "Not fulfilled"),
    ("Cc1ccc2[nH]cc(/C=C/c3cc[n+](C)cc3)c2c1", "Fulfilled"),
    ("Cc1ccc(S(=O)(=O)/N=C(\\Sc2ccccc2)c2ccccc2)cc1", "Not fulfilled"),
    ("Cc1cccc(N=Nc2ccc(O)c3ncccc23)c1", "Fulfilled"),
    ("CC(=O)n1cc(C(C[N+](=O)[O-])SCCN)c2ccccc21 (centres undefined)", "Fulfilled"),
]

Here is the next item to consider.
Quick check: GFP fluorescence, lower = active (kMESF (background-subtracted)) of "CCOC(=O)CCS(=O)(=O)c1nc(-c2ccccc2)cc(C(F)(F)F)n1" under 40?
Fulfilled

====

Experiment: TOR pathway RPL19A-GFP modulators, concentration series – cell-based, S. cerevisiae, flow cytometry, MLPCN hits, dose response (AID 2740);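 further: background is signal of the same compound in parental non-GFP s288c yeast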
Settings: S. cerevisiae RPL19A-GFP strain, flow cytometry fluorescence, 3 h; at 33 µM (top of the series)
reported metric: GFP fluorescence, lower = active (kMESF (background-subtracted))
Write no unit; give the number alone.

Previously resolved entries follow.
# molecule, reported measurement
records = [
    ("c1ccc(-c2csc(Nc3cccnc3)n2)nc1", 36.5),
    ("CC[C@]1(c2ccccc2OC)ON(c2ccccc2C(F)(F)F)C1=O", 33.7),
    ("Cc1ccc(C2=NN(S(C)(=O)=O)C(c3ccc4c(c3)OCO4)C2)cc1 (stereo not given)", 44.8),
    ("Cc1ccc(O)c(N=Nc2nccs2)c1", 32.1),
]

Recorded GFP fluorescence, lower = active (kMESF (background-subtracted)) of "COc1cc(/C=C2/C(=O)ON=C2c2ccccc2)ccc1O" , please.
35.6
